Molecular target: biot-RSV-F wt (respiratory syncytial virus (RSV))
Assay: BLI (Octet), biotinylated F on SA sensors, mAb 5 µg/ml
pKd: −log10 of the molar value.
Each item that follows carries a reported pKd.
property.name: pKd

1. MPK77-v1.1-rIgG1m17,1-LS (antibody, V domains shown, called the parental mAb (v1.1); also called MPK77-v1.1-rIgG1-LS) VH: QVQLVESGGGLVKPGGSLRLSCAASKSFSGYYMIWIRQAPGRGLEWIADISGSSTYTDYADSVKGRFTISRDNTRNTLYLQMNSLRPEDTAVYYCATEQVPSPGPFDLWGPGTLVTVSS VL: QSVLTQPPSVSGAPGQRVIISCTGSSSNIGAGYDVHWYQQFPGTSPKLLIYRNTNRPSGVPDRFSGFKSGASAALAITGLQAEDEADYYCQSYDRSLSGWAFGGGTKVTVL | > 12.00
2. MPK190-v1.1-rIgG1m17,1-LS (antibody, V domains shown, also called MPK190-v1.1-rIgG1-LS) VH: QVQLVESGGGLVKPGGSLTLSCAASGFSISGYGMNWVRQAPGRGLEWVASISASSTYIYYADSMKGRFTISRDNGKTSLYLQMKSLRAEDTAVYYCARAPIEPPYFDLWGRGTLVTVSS VL: QSVLTQPPSVSGAPGQRVTISCTGSNSNIGAGYDVHWYQHLPGKAPKVLIYGNNNRPSVVPDRFSGSNSGASASLAISGLQAEDEADYFCQSYDRRLSGPIFGGGTKLTVL | > 12.00
3. MPK104-v1.3-rIgG1m17,1-LS (antibody, V domains shown, also called MPK104-v1.3-rIgG1-LS) VH: QVQLVESGGGLVKPGGSLRLSCAASGFTIDGYGMNWVRQAPGKGLEWVSSISASSNYIYYADSMKGRFTISRDNGKNSLYLQMHSLRVEDTGVYYCARAPLEPPYFDLWGRGTLVTVSS VL: QSVLTQPPSVSGAPGQRVTISCSGGSSNIGAGYDVHWYQQVPGKGPKVLIYGNTNRPSGVPDRFSGSNFGASASLAITGLQAEDEADYFCQSYDRRLGGPVFGGGTKLTVL | 9.68
4. MPK190-v1.3-rIgG1m17,1-LS (antibody, V domains shown, also called MPK190-v1.3-rIgG1-LS) VH: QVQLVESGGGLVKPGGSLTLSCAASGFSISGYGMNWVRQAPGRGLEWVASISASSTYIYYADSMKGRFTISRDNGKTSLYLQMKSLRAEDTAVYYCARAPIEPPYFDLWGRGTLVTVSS VL: QSVLTQPPSVSGAPGQRVTISCTGSSSNIGAGYDVHWYQHLPGKAPKVLIYGNTNRPSVVPDRFSGSNSGASASLAISGLQAEDEADYFCQSYDRRLSGPIFGGGTKLTVLG | > 12.00
